Measured values drawn from patent US11642336B2 for this set.

# target under test: UniProt:P28223
# experiment summary: cell-based
# Format: cell-based
# measurement parameters: agonist potency, n = 3-4; read-out: 5-HT2A EC50
pEC50: −log10 of the molar value. Structures can show the parent of a compound that is named as a salt.
Quick rule: pEC50 of at least 6 means 1, below that means 0.

See these solved cases before continuing.
Is pEC50 for `COc1cc([C@@H]2CCCNC2)c(OC)cc1SC(C)C` at or above 6?
1

Is pEC50 for CCOc1cc(C(F)(F)F)c(OCC)cc1[C@H]1CCCNC1.Cl [Compound 21, hydrochloride] at or above 6?
0

Is pEC50 for COc1cc([C@@H]2CCCNC2)ccc1C(F)(F)F.Cl [Compound 49, Hydrochloride] at or above 6?
0

Is pEC50 for COc1cc(C(F)(F)F)c(OC)cc1C1CCCNC1C.Cl (stereo not drawn) [Compound 35, hydrochloride] at or above 6?
1

Is pEC50 for CCCCc1cc(OC)c([C@@H]2CCCNC2)cc1OC [Compound 57, hydrochloride] at or above 6?
1

***
Is pEC50 for `COc1cc([C@H]2CCCNC2)c(OC)cc1Br` at or above 6?
1

Is pEC50 for CCSc1cc([C@H]2CCCNC2)c(OC)cc1C(F)(F)F.Cl [Compound 46, hydrochloride] at or above 6?
1

Is pEC50 for CCOc1cc(C(F)(F)F)c(OCC)cc1[C@@H]1CCCNC1.Cl [Compound 22, hydrochloride] at or above 6?
1
